- Tested on: OVCAR-8 ovarian
- Experimental details: NCI tumour cell line growth inhibition, 48 h
Kindly state TGI for each of the entries shown.

Input: Fill blank: measured TGI of the compound O=C(O)c1ccc(NNC(=O)c2cccc3c(=O)c4ccccc4[nH]c23)cc1 is ____.
Output: > 100 µM

Input: Requested field: TGI. Item: O=NN(CCCl)C(=O)N[C@H]1CCCC[C@@H]1Cl
Output: > 100 µM

Input: Which value of TGI has been reported for CCC1=[N+]([O-])C(C)(C)NC1(C)C in the records?
Output: > 10 µM

----------
Answer each item with its documented GI50.
- Test system: MDA-MB-231 breast
- Experimental details: NCI tumour cell line growth inhibition, 48 h

Input: State the recorded GI50 for this entry: COc1cc2c3c(n(CCCN4CCCC(O)C4)c(=O)c2cc1OC)-c1cc2c(cc1C3=O)OCO2 (stereo not drawn)
Output: 791 nM

Input: Which GI50 value is on record for Oc1c(CN2CCN(c3ccccc3F)CC2)cc(Br)c2cccnc12 ?
Output: 902 nM

Input: // lookup GI50 for Nc1c2ccccc2nc2ccccc12 (tested in a mixture with another compound)
Output: 1500 nM
